Reported values of inhibition for individual entries
assay target: Muscarinic acetylcholine receptor M1 (Homo sapiens) (UniProt P11229)
Sequence (P11229 whole entry, looked up): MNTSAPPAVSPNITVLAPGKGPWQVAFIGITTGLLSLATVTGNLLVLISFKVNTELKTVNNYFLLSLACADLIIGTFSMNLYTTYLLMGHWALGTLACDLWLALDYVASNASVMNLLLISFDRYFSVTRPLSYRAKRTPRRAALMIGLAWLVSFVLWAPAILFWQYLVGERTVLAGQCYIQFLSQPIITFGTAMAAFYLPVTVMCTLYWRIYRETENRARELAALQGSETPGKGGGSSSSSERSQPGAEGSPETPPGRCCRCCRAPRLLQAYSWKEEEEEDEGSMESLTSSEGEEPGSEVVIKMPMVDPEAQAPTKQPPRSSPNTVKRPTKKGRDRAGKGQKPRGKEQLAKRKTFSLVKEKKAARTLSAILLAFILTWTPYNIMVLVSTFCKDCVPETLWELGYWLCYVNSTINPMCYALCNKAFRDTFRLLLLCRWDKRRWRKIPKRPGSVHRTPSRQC
experiment summary: CHRM1 blockers of acetylcholine calcium response – CHO-K1 cells, Fluo-8 calcium fluorescence, 1536-well, primary screen (AID 588852);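 further: peak over basal fluorescence ratio during 140 s after agonist addition; 0% = ACh EC80 plus DMSO and 100% = DMSO alone without agonist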
experimental setup: CHO-K1 hM1, Fluo-8 calcium fluorescence, ACh EC80 antagonist; at 3 µM; hits give high values
Screen size: about 360,000 compounds; about 4,600 (1.3%) were called active. The list comes from a sample in which actives are over-represented; it also holds close analogues and randomly drawn compounds.
quantity: inhibition (%)

INSERT INTO measurements (compound, assay_target, quantity, measured_value) VALUES
  ('CCc1cc2c(SCC(=O)Nc3ncc(Cl)c(C)c3Cl)ncnc2s1', 'Muscarinic acetylcholine receptor M1 (Homo sapiens) (UniProt P11229)', 'inhibition', 3.21),
  ('O=C(Nc1ccncc1)c1cc2ccccc2o1', 'Muscarinic acetylcholine receptor M1 (Homo sapiens) (UniProt P11229)', 'inhibition', 11.1),
  ('COc1cc2ccccc2cc1C(=O)Nc1ccncc1', 'Muscarinic acetylcholine receptor M1 (Homo sapiens) (UniProt P11229)', 'inhibition', -10.8),
  ('Cc1cccc(NS(=O)(=O)c2ccc(C)c(C(=O)NCC(c3ccccc3)N(C)C)c2)c1 (stereo unspecified)', 'Muscarinic acetylcholine receptor M1 (Homo sapiens) (UniProt P11229)', 'inhibition', -6.04),
  ('CCc1cccc(NC(=O)COC(=O)C2CCN(c3ccc(C(F)(F)F)cn3)CC2)c1', 'Muscarinic acetylcholine receptor M1 (Homo sapiens) (UniProt P11229)', 'inhibition', 2.01),
  ('CC(C)C1C(=O)N(Cc2cn(CCC3OCCO3)nn2)CCS(=O)(=O)N1Cc1ccc(-c2ccccc2C(F)(F)F)cc1 (stereo unspecified)', 'Muscarinic acetylcholine receptor M1 (Homo sapiens) (UniProt P11229)', 'inhibition', -16.4),
  ('CC(C)(C)Cc1c(C2CCCCC2)nc2ccc(Br)cn12', 'Muscarinic acetylcholine receptor M1 (Homo sapiens) (UniProt P11229)', 'inhibition', -23.6),
  ('CCOc1ccc(CCNC(=O)COC(=O)C2CCN(c3ccc(C(F)(F)F)cn3)CC2)cc1OCC', 'Muscarinic acetylcholine receptor M1 (Homo sapiens) (UniProt P11229)', 'inhibition', 38.9),
  ('COc1ccc(C(CNC(=O)c2cccc(S(=O)(=O)Nc3ccc(Br)cc3)c2)N(C)C)cc1 (stereo unspecified)', 'Muscarinic acetylcholine receptor M1 (Homo sapiens) (UniProt P11229)', 'inhibition', -2.85),
  ('COc1ccccc1C(CNC(=O)c1cccc(S(=O)(=O)Nc2ccc(F)cc2)c1)N(C)C (stereo unspecified)', 'Muscarinic acetylcholine receptor M1 (Homo sapiens) (UniProt P11229)', 'inhibition', 100),
  ('CN(C)S(=O)(=O)N1CCC(Oc2cccc(C(=O)NCCCC3CCCC3)c2)CC1', 'Muscarinic acetylcholine receptor M1 (Homo sapiens) (UniProt P11229)', 'inhibition', 26.7),
  ('CCCCC[C@@H]1C=C(C(=O)OCC)[C@H](c2ccccc2)N1S(=O)(=O)c1ccc(C)cc1', 'Muscarinic acetylcholine receptor M1 (Homo sapiens) (UniProt P11229)', 'inhibition', 7.33),
  ('CC(=O)C1=CCC(c2ccccc2)N(S(=O)(=O)c2ccc(C)cc2)C1 (stereo unspecified)', 'Muscarinic acetylcholine receptor M1 (Homo sapiens) (UniProt P11229)', 'inhibition', -10.8),
  ('O=C(CSc1nc2ccccc2c(=O)n1CCCO)NC1CC1', 'Muscarinic acetylcholine receptor M1 (Homo sapiens) (UniProt P11229)', 'inhibition', -2.1),
  ('NC(Cc1ccc(F)cc1)c1csc(Nc2nncc3ccccc23)n1 (stereo unspecified)', 'Muscarinic acetylcholine receptor M1 (Homo sapiens) (UniProt P11229)', 'inhibition', -3.42),
  ('CCCCn1nnnc1C(c1cccc(OC)c1OC)N1CCN(C/C=C/c2ccccc2)CC1 (stereo unspecified)', 'Muscarinic acetylcholine receptor M1 (Homo sapiens) (UniProt P11229)', 'inhibition', 34.7),
  ('CCOC(=O)C1=CC[C@@H](c2ccncc2)N(S(=O)(=O)c2ccc(C)cc2)C1', 'Muscarinic acetylcholine receptor M1 (Homo sapiens) (UniProt P11229)', 'inhibition', 24.6),
  ('Cc1nc(NC(=O)CCC(=O)O)sc1C(=O)N(C)C', 'Muscarinic acetylcholine receptor M1 (Homo sapiens) (UniProt P11229)', 'inhibition', 2.74),
  ('CC(=O)NS(=O)(=O)c1ccc2c(c1)Cc1cc(S(=O)(=O)NC(C)=O)ccc1-2', 'Muscarinic acetylcholine receptor M1 (Homo sapiens) (UniProt P11229)', 'inhibition', -13.4),
  ('CN(C)C(CNC(=O)c1cccc(S(=O)(=O)Nc2ccc(Br)cc2)c1)c1ccco1 (stereo unspecified)', 'Muscarinic acetylcholine receptor M1 (Homo sapiens) (UniProt P11229)', 'inhibition', -0.14),
  ('CCC(C)Sc1nc2c(cnn2-c2ccc(F)cc2)c(=O)[nH]1 (stereo unspecified)', 'Muscarinic acetylcholine receptor M1 (Homo sapiens) (UniProt P11229)', 'inhibition', -10.5);
